# tgt: human MAT2A (Homo sapiens, UniProt P31153)
# Sequence (P31153 whole entry): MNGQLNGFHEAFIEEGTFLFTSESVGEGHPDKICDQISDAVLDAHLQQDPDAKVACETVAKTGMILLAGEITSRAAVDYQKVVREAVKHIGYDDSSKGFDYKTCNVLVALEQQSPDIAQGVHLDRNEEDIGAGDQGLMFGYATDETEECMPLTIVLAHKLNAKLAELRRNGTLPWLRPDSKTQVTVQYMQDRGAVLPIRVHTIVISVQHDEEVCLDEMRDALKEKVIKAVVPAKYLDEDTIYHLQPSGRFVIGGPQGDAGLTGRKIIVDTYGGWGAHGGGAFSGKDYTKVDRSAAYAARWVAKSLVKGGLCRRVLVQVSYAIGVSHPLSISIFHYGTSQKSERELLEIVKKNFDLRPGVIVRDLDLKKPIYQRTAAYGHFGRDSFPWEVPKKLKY
# method-notes: Product inhibition of MAT2A by AdoMet
# Assay type: biochemical
# particulars: with respect to ATP, non-competitive
readout-label: pKi
The meaning of pKi here: minus log10 of the concentration in molar units.

[in] Consider the molecule shown here: C[S+](CC[C@H](N)C(=O)[O-])C[C@H]1O[C@@H](n2cnc3c(N)ncnc32)[C@H](O)[C@@H]1O (stereo partly shown) What is its recorded pKi?
[out] 3.87

###

# tgt: UniProt P31153
# method-notes: Inhibition of MAT2A by PNP or PPNP
# particulars: Ki, toward methionine; non-competitive
readout-label: Ki

[in] What is its Ki for UniProt P31153? Entry: O=P(O)(O)NP(=O)(O)O [Imidodiphosphate]
[out] 17 µM
